Method notes: basal HepG2 mitochondrial membrane potential changes, profiling panel, cell-based, JC-1 fluorescence, 24 h, 100 nL compound (AID 1167); also: test concentration not given here
Experimental setup: higher = more signal
Observable: z-score

* CN(C)C(=O)[C@@]1(Cc2ccccc2N=[N+]=[N-])N=C(c2ccc(OCCCO)cc2)O[C@H]1c1ccccc1 | 0.517
* COCCOC(=O)N1C(=O)[C@@]2(c3cc(C#CC4=CCCCC4)ccc31)[C@H](C(=O)N1CCCCCCC1)[C@H]1C(=O)O[C@H](c3ccccc3)[C@H](c3ccccc3)N1[C@@H]2c1ccc(OCCO)cc1 | 0.225
* [N-]=[N+]=Nc1ccccc1[C@@H]1OC(c2ccc(OCCCO)cc2)=N[C@]1(Cc1ccccc1)C(=O)NCc1ccccc1 | -2.02
* CCOC(=O)C1=C[C@@H](c2ccccc2)N(S(=O)(=O)c2ccc(C)cc2)[C@H]1c1ccccc1 | 1.62
* CC(C)OC(=O)CC(=O)CC(O)c1ccc([N+](=O)[O-])cc1 (centres undefined) | 0.775
* CC(C)C(=C=CC[C@H](O)c1cccc(OCCO)c1)CCO | 0.434
* O=C1C2C=CC(C(O)C=Cc3ccc([N+](=O)[O-])cc3)N(Nc3ccccc3)C2C(=O)N1c1ccccc1 (centres undefined) | -0.0526
* CC(C)CNC(=O)[C@@]1(C)c2ccccc2C(=O)N(Cc2cc(C(F)(F)F)cc(C(F)(F)F)c2)[C@H]1c1ccc(CO)cc1 | 2.16
* [N-]=[N+]=NCc1ccccc1[C@@H]1OC(c2ccc(OCCCO)cc2)=N[C@]1(Cc1ccccc1N=[N+]=[N-])C(=O)N1CCCCC1 | 0.913
* COC(=O)[C@@]1(Cc2ccc(F)cc2)[C@H]2c3cc(C(=O)N(C)C)n(Cc4ccc(O)c(OC)c4)c3C[C@H]2CN1C(=O)c1ccccc1 | 0.766
* CC1(C)C(=O)C(c2ccccc2)=C2CN3C(=O)N(CCc4ccccc4)C(=O)C3(Cc3ccc(C(F)(F)F)cc3)C=C21 (centres undefined) | -2.08
* CC(C)C(=C=CC[C@@H](O)c1cccc(OCCO)c1)C[C@@H](O)COCc1ccccc1 | 0.427
* COC(=O)[C@@]1(Cc2ccccc2)[C@H]2c3cc(C(=O)N(C)C)n(CCn4cc([N+](=O)[O-])nc4C)c3C[C@H]2CN1C(=O)c1ccccc1 | 0.547
* CCCCCCCCCCC(O)C1C=CC2C(=O)N(c3ccccc3)C(=O)C2N1Nc1ccccc1F (centres undefined) | -0.777
* O=C1O[C@H](c2ccccc2)[C@H](c2ccccc2)N2[C@H]1[C@@H](C(=O)O)[C@]1(C(=O)Nc3ccc(C#CC4(O)CCCCCC4)cc31)[C@H]2c1ccc(O)cc1 | -0.482
* C[C@@]12COC[C@]13C=C(Br)[C@H](C2)[C@@]1(CO1)C3=O | -1.47
* [N-]=[N+]=NCc1ccccc1[C@@H]1OC(c2ccc(OCCCO)cc2)=N[C@]1(Cc1ccccc1N=[N+]=[N-])C(=O)NCCN1CCOCC1 | 0.988
* COC(=O)C(CC#Cc1ccc2c(c1)[C@]1(C(=O)N2)[C@H](C(=O)Nc2nc3ccccc3s2)[C@H]2C(=O)O[C@H](c3ccccc3)[C@H](c3ccccc3)N2[C@@H]1c1ccc(OCCO)cc1)C(=O)OC | -3.2
* CC(C)C(CO)N1C(=O)[C@@H]2[C@H]3C(=O)OCC=C[C@H]3OC23C=CCN(C(C)(C)C)C(=O)[C@@H]13 (some centres undefined) | -1.16
* COc1ccc([Si](C)(C)[C@H]2[C@H](CCO)O[C@@]3(C(=O)N(Cc4ccc(N5C(=O)c6ccccc6Oc6ccccc65)cc4)c4ccccc43)[C@@H]2C)cc1 | 0.0142
* COCC(=C=CC[C@@H](O)c1cccc(OCCO)c1)CCO | 0.00786
* NC(=O)N1C(=O)C2C(C1=O)C1C=C(CCCO)C2C(C2CC2)N1Cc1cccc(OC(F)(F)F)c1 (centres undefined) | -0.348
* Cc1ccc(S[C@]2(C(=O)NC(C)C)CC(=O)N(Cc3ccccc3Cl)[C@@H]2c2ccc(CO)cc2)cc1 | -0.142
* C=C[C@@H](C)[C@@H](OC(=O)Nc1ccc(SC)cc1)c1ccc(OCCO)cc1 | -2.54
* C=CCN1C(=O)[C@]2(O[C@H](CCO)[C@@H]([Si](C)(C)c3ccc(OC)cc3)[C@@H]2C)c2cc(N3C(=O)COc4ccccc43)ccc21 | -2.14
* [N-]=[N+]=Nc1ccccc1C[C@]1(C(=O)NCc2ccccc2)COC(c2ccc(OCCCO)cc2)=N1 | 0.789
* O=C1OCC=C[C@H]2OC34C=CCN(c5ccc6ccccc6c5)C(=O)[C@H]3N(CCCCCO)C(=O)[C@@H]4[C@@H]12 (some centres undefined) | -0.913
* CO[C@H]1O[C@H](CO)[C@@H](OC(=O)Nc2ccc(C#N)cc2)[C@@H]2OC(=O)[C@H](Cc3cccc(Br)c3)C/C=C/C[C@@H](Cc3cccc(Br)c3)C(=O)O[C@@H]12 | 1.73
* C=CCC(OC(C)=O)[C@@H]1[C@@H](N(Cc2cccc3ccccc23)C(=O)c2ccc(-c3ccccc3)cc2)c2cc(OCCCO)ccc2N1C(=O)c1ccc(-c2ccccc2)cc1 (some centres undefined) | 0.78
